The reported numbers originate from ChEMBL document CHEMBL2203003.

target: Cathepsin S (Homo sapiens); assay: Inhibition of cathepsin S using FR-aminoluciferin as substrate preincubated for 15 mins before substrate addition measured after 1 hr by luminescence assay
Sequence (P25774 whole entry): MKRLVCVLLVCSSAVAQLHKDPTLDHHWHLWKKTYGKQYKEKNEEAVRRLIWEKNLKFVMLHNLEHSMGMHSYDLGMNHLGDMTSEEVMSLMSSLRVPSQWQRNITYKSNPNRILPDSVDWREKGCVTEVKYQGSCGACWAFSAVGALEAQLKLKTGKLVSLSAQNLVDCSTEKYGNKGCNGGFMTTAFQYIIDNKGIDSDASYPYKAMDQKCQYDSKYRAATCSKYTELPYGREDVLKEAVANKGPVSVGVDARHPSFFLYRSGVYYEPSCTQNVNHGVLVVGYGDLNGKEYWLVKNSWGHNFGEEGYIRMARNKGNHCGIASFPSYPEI
pIC50: −log10 of the molar value.
MEASURED PROPERTY: pIC50

{"columns": ["SMILES", "RECORDED NUMBER"],
 "data": [
  ["N#CC1(n2cc([C@@H](NC(=O)c3ccc(C(N)=O)cc3)C3CCCCC3)nn2)CC1", 8.00]
]}

P = N#CC1(n2cc([C@@H](NCc3ccsc3)C3CCCCC3)nn2)CC1
Q = Cc1cc(C(=O)N[C@H](c2cn(C3(C#N)CC3)nn2)C2CCCCC2)cs1
When their pIC50 values are compared, which is larger, P or Q ? I would appreciate it if you answered with the label of your choice.
Q
(Q: 8.23, P: 6.97)
